- Test system: Escherichia coli TOP10
- assayName: shrunken log2 fold change of peptide-encoding DNA abundance (4.5 h post-induction vs induction); higher = less antimicrobial activity (less host growth inhibition)
- runParameters: time post-induction: 4.5 h; library: site-saturation at positions 5, 18, 19, 20
Think of -0.2 as a floor: if shrunken log2 fold change stands on it or above, it is Condition met; beneath it, Condition not met.

Query string: Textbook exercise: given the entry RRIRIRPPRLPRPRPRPKHVPRP , state whether its shrunken log2 fold change is greater than or equal to -0.2.
Result string: Condition not met

---

- System: Escherichia coli TOP10
- assayName: shrunken log2 fold change of peptide-encoding DNA abundance (4.5 h post-induction vs induction); higher = less antimicrobial activity (less host growth inhibition)
- runParameters: time post-induction: 4.5 h; library: site-saturation at positions 5, 18, 19, 20
Classify on shrunken log2 fold change using bucket A: < -0.09; bucket B: ≥ -0.09 and < 0.03; bucket C: ≥ 0.03

Solved cases (4 shown):
> print(dat)
              sequencecode  classlabel
1  RRIRWRPPRLPRPRPRPVYRPRP    bucket B
2  RRIRVRPPRLPRPRPRPSMRPRP    bucket C
3  RRIRGRPPRLPRPRPRPCCHPRP    bucket C
4  RRIRHRPPRLPRPRPRPVCPPRP    bucket B

Query string: Each sequence maps to one class by shrunken log2 fold change. Which class for RRIRLRPPRLPRPRPRPTNFPRP ?
Result string: bucket B

Query string: Given RRIRNRPPRLPRPRPRPDDEPRP , name the class its shrunken log2 fold change places it in.
Result string: bucket B

Query string: Class for RRIRLRPPRLPRPRPRPQDKPRP ?
Result string: bucket A

Query string: For this sequence, which bin applies? RRIRKRPPRLPRPRPRPQRIPRP
Result string: bucket B

Query string: Which shrunken log2 fold change band matches RRIRARPPRLPRPRPRPRHQPRP ?
Result string: bucket C

Query string: Kindly identify the class of RRIRARPPRLPRPRPRPAYNPRP .
Result string: bucket C

Query string: Could you tell me which band RRIRDRPPRLPRPRPRPCCRPRP belongs to?
Result string: bucket A

Query string: Lab note: sort RRIRERPPRLPRPRPRPNNLPRP into the matching shrunken log2 fold change band.
Result string: bucket A

Query string: Which shrunken log2 fold change category applies to RRIRPRPPRLPRPRPRPYIPPRP here?
Result string: bucket A

Query string: State the class of the sequence shown: RRIRHRPPRLPRPRPRPHNVPRP
Result string: bucket A

Query string: Which category fits this record: RRIRHRPPRLPRPRPRPPNEPRP
Result string: bucket C

---

- Test system: Escherichia coli TOP10;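 also: peptides expressed intracellularly from a pBAD plasmid library in pooled LB shake-flask culture, induced with 0.3% L-arabinose, DNA abundance read by NGS, three biological replicates, DESeq2 with apeglm shrinkage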
- assayName: shrunken log2 fold change of peptide-encoding DNA abundance (4.5 h post-induction vs induction); higher = less antimicrobial activity (less host growth inhibition)
- runParameters: time post-induction: 4.5 h; library: site-saturation at positions 5, 18, 19, 20
measuredParameter: shrunken log2 fold change
Response field accepts a number only; no unit should be typed.

Consider the reported shrunken log2 fold change for these sequences:
> print(dat)
              sequencecode         targetundertest          measuredparameter  measurement
1  RRIRWRPPRLPRPRPRPKHFPRP  Escherichia coli TOP10  shrunken log2 fold change      -0.0487
2  RRIRSRPPRLPRPRPRPGYLPRP  Escherichia coli TOP10  shrunken log2 fold change       -0.388
3  RRIRIRPPRLPRPRPRPNMYPRP  Escherichia coli TOP10  shrunken log2 fold change        -0.59
4  RRIRWRPPRLPRPRPRPSPAPRP  Escherichia coli TOP10  shrunken log2 fold change        0.348

Query string: # input sequence: RRIRKRPPRLPRPRPRPVQKPRP ; wanted: its shrunken log2 fold change
Result string: 0.242

Query string: Looking for the measured shrunken log2 fold change of RRIRIRPPRLPRPRPRPLQAPRP , can you help?
Result string: 0.0546

Query string: Entry RRIRARPPRLPRPRPRPVSLPRP has what shrunken log2 fold change?
Result string: -0.0174

Query string: Find the recorded shrunken log2 fold change belonging to RRIRQRPPRLPRPRPRPIENPRP and report it.
Result string: 0.219

Query string: GET /values?readout=shrunken log2 fold change&item= RRIRPRPPRLPRPRPRPAGLPRP
Result string: 0.279

Query string: # query: shrunken log2 fold change of entry RRIRKRPPRLPRPRPRPWMRPRP
Result string: 0.373

Query string: Entry RRIRQRPPRLPRPRPRPDEVPRP : reported shrunken log2 fold change = ?
Result string: 0.0037

Query string: Fill in: shrunken log2 fold change of RRIRFRPPRLPRPRPRPWGKPRP is ___
Result string: -0.221

Query string: # input sequence: RRIRCRPPRLPRPRPRPVNQPRP ; wanted: its shrunken log2 fold change
Result string: -0.174
